Source listed as patent US20110294738A1.

Reported log10(Fold Shift of EC50) is given for each of the following binders.
target: PTHR1 receptor
Sequence (P25961 whole entry): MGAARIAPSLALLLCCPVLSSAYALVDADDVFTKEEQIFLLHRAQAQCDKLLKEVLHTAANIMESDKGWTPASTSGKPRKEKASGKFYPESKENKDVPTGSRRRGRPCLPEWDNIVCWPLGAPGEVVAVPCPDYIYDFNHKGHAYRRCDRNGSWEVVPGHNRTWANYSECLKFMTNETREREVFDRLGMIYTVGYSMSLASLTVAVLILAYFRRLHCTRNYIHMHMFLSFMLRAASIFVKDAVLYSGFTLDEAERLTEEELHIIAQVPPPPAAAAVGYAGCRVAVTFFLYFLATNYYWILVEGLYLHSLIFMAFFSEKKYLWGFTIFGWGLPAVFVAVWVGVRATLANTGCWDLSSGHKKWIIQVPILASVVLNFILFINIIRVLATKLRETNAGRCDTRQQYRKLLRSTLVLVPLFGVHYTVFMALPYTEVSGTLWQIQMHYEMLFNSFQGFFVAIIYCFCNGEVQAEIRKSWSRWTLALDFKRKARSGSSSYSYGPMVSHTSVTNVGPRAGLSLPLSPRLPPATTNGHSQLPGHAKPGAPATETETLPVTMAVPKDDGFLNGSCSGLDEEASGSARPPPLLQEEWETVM
* marks the point of attachment. Palmitoyl = CCCCCCCCCCCCCCCC(=O)*
Give log10 of Fold Shift of EC50, with Fold Shift of EC50 taken in fold.

Consider the following illustrative entries.
{"BINDER": "Palmitoyl-AGRSDTRQQYRKLLKS-NH2 (SMILES CCCCCCCCCCCCCCCC(=O)N[C@@H](C)C(=O)NCC(=O)N[C@@H](CCCNC(=N)N)C(=O)N[C@@H](CO)C(=O)N[C@@H](CC(=O)O)C(=O)N[C@H](C(=O)N[C@@H](CCCNC(=N)N)C(=O)N[C@@H](CCC(N)=O)C(=O)N[C@@H](CCC(N)=O)C(=O)N[C@@H](Cc1ccc(O)cc1)C(=O)N[C@@H](CCCNC(=N)N)C(=O)N[C@@H](CCCCN)C(=O)N[C@@H](CC(C)C)C(=O)N[C@@H](CC(C)C)C(=O)N[C@@H](CCCCN)C(=O)N[C@@H](CO)C(N)=O)[C@@H](C)O) [Compound 65]", "log10(Fold Shift of EC50)": 1.17}
{"BINDER": "Palmitoyl-TNAGRSDTRQAYRKLL-NH2 (SMILES CCCCCCCCCCCCCCCC(=O)N[C@H](C(=O)N[C@@H](CC(N)=O)C(=O)N[C@@H](C)C(=O)NCC(=O)N[C@@H](CCCNC(=N)N)C(=O)N[C@@H](CO)C(=O)N[C@@H](CC(=O)O)C(=O)N[C@H](C(=O)N[C@@H](CCCNC(=N)N)C(=O)N[C@@H](CCC(N)=O)C(=O)N[C@@H](C)C(=O)N[C@@H](Cc1ccc(O)cc1)C(=O)N[C@@H](CCCNC(=N)N)C(=O)N[C@@H](CCCCN)C(=O)N[C@@H](CC(C)C)C(=O)N[C@@H](CC(C)C)C(N)=O)[C@@H](C)O)[C@@H](C)O) [Compound 93]", "log10(Fold Shift of EC50)": 1.13}
{"BINDER": "Palmitoyl-GSEKKYLWGFTVF-NH2 (SMILES CCCCCCCCCCCCCCCC(=O)NCC(=O)N[C@@H](CO)C(=O)N[C@@H](CCC(=O)O)C(=O)N[C@@H](CCCCN)C(=O)N[C@@H](CCCCN)C(=O)N[C@@H](Cc1ccc(O)cc1)C(=O)N[C@@H](CC(C)C)C(=O)N[C@@H](Cc1c[nH]c2ccccc12)C(=O)NCC(=O)N[C@@H](Cc1ccccc1)C(=O)N[C@H](C(=O)N[C@H](C(=O)N[C@@H](Cc1ccccc1)C(N)=O)C(C)C)[C@@H](C)O) [Compound 41]", "log10(Fold Shift of EC50)": -0.05}
{"BINDER": "Palmitoyl-RVLATKLRETNAGR-NH2 (SMILES CCCCCCCCCCCCCCCC(=O)N[C@@H](CCCNC(=N)N)C(=O)N[C@H](C(=O)N[C@@H](CC(C)C)C(=O)N[C@@H](C)C(=O)N[C@H](C(=O)N[C@@H](CCCCN)C(=O)N[C@@H](CC(C)C)C(=O)N[C@@H](CCCNC(=N)N)C(=O)N[C@@H](CCC(=O)O)C(=O)N[C@H](C(=O)N[C@@H](CC(N)=O)C(=O)N[C@@H](C)C(=O)NCC(=O)N[C@@H](CCCNC(=N)N)C(N)=O)[C@@H](C)O)[C@@H](C)O)C(C)C) [Compound 75]", "log10(Fold Shift of EC50)": 0.04}
{"BINDER": "Palmitoyl-SGRVLATKLRETNAGR-NH2 (SMILES CCCCCCCCCCCCCCCC(=O)N[C@@H](CO)C(=O)NCC(=O)N[C@@H](CCCNC(=N)N)C(=O)N[C@H](C(=O)N[C@@H](CC(C)C)C(=O)N[C@@H](C)C(=O)N[C@H](C(=O)N[C@@H](CCCCN)C(=O)N[C@@H](CC(C)C)C(=O)N[C@@H](CCCNC(=N)N)C(=O)N[C@@H](CCC(=O)O)C(=O)N[C@H](C(=O)N[C@@H](CC(N)=O)C(=O)N[C@@H](C)C(=O)NCC(=O)N[C@@H](CCCNC(=N)N)C(N)=O)[C@@H](C)O)[C@@H](C)O)C(C)C) [Compound 74]", "log10(Fold Shift of EC50)": 0.28}
{"BINDER": "Palmitoyl-GSYFRRLHSTRNYIH-NH2 (SMILES CCCCCCCCCCCCCCCC(=O)NCC(=O)N[C@@H](CO)C(=O)N[C@@H](Cc1ccc(O)cc1)C(=O)N[C@@H](Cc1ccccc1)C(=O)N[C@@H](CCCNC(=N)N)C(=O)N[C@@H](CCCNC(=N)N)C(=O)N[C@@H](CC(C)C)C(=O)N[C@@H](Cc1c[nH]cn1)C(=O)N[C@@H](CO)C(=O)N[C@H](C(=O)N[C@@H](CCCNC(=N)N)C(=O)N[C@@H](CC(N)=O)C(=O)N[C@@H](Cc1ccc(O)cc1)C(=O)N[C@H](C(=O)N[C@@H](Cc1c[nH]cn1)C(N)=O)[C@@H](C)CC)[C@@H](C)O) [Compound 11]", "log10(Fold Shift of EC50)": 0.04}

Turning now to a further record.
Exercise: Find the recorded log10(Fold Shift of EC50) belonging to Palmitoyl-TNAGRSDTRAQYRKLL-NH2 (SMILES CCCCCCCCCCCCCCCC(=O)N[C@H](C(=O)N[C@@H](CC(N)=O)C(=O)N[C@@H](C)C(=O)NCC(=O)N[C@@H](CCCNC(=N)N)C(=O)N[C@@H](CO)C(=O)N[C@@H](CC(=O)O)C(=O)N[C@H](C(=O)N[C@@H](CCCNC(=N)N)C(=O)N[C@@H](C)C(=O)N[C@@H](CCC(N)=O)C(=O)N[C@@H](Cc1ccc(O)cc1)C(=O)N[C@@H](CCCNC(=N)N)C(=O)N[C@@H](CCCCN)C(=O)N[C@@H](CC(C)C)C(=O)N[C@@H](CC(C)C)C(N)=O)[C@@H](C)O)[C@@H](C)O) [Compound 81] and report it.
Solution: 1.14
